- ASSAY INFO: LFS_MB_2R medulloblastoma cell growth inhibition, synergistic combos for chromothripsis tumors, cisplatin combos (AID 1671457);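 also: cells exposed to compound for four days before readout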
- EXPERIMENTAL PARAMETERS: LFS_MB_2R medulloblastoma cells, at 0.5 µM, stronger effect = higher value
Activity calls are given as the source filed them. Rule as the data show it: active = inhibition above about 80%; inactive = the rest.
Would you mind telling me the reported inhibition of each entry?

Query string: Tell me the measured inhibition of Nc1ccc2cc3ccc(N)cc3nc2c1 , please.
Result string: -9.07% (inactive)

Query string: Tell me the measured inhibition of CCn1nc(C(=O)O)c(=O)c2cc3c(cc21)OCO3 , please.
Result string: -9.44% (inactive)

Query string: Tell me the measured inhibition of COC1C(OC(N)=O)C(O)C(Oc2ccc3c(O)c(NC(=O)c4ccc(O)c(CC=C(C)C)c4)c(=O)oc3c2C)OC1(C)C (stereo not drawn) , please.
Result string: -20.5% (inactive)

----------
- ASSAY INFO: liver-stage malaria parasite growth inhibition, primary screen, cell-based, HepG2, luciferase luminescence, HepG2 viability (AID 624349);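 also: 100% = mean of DMSO negative control wells on the same plate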
- EXPERIMENTAL PARAMETERS: P. berghei liver stage in HepG2, luciferase luminescence, concentration not given here; measured here: HepG2 viability without parasites
Would you mind telling me the reported viability of each entry?
Please respond with the number in % and leave the unit unwritten.

Query string: Tell me the measured viability of CC(C)=CCC1=C(O)c2ccccc2C(=O)C1=O , please.
Result string: 63.9

Query string: Tell me the measured viability of CON=C(C(=O)NC1C(=O)N2C(C(=O)O)=C(COC(C)=O)CSC12)c1csc(N)n1 (stereo unspecified) , please.
Result string: 130

Query string: Tell me the measured viability of CCCCC(=O)O[C@H]1CC[C@H]2[C@@H]3CCc4cc(O)ccc4[C@H]3CC[C@]12C , please.
Result string: 98.1

Query string: Tell me the measured viability of CCCCCCCCCCCCCCCCCCCCCCO , please.
Result string: 109

Query string: Tell me the measured viability of CN=C(NC#N)NCCSCc1csc(N=C(N)N)n1 , please.
Result string: 132

Query string: Tell me the measured viability of CC(C)Cn1c(=O)n(C)c(=O)c2[nH]cnc21 , please.
Result string: 71.5

Query string: Tell me the measured viability of CN(C/C=C/c1ccccc1)Cc1cccc2ccccc12 , please.
Result string: 71.3

Query string: Tell me the measured viability of NS(=O)(=O)c1cc2c(cc1Cl)NC(CC1CCCC1)NS2(=O)=O (stereo unspecified) , please.
Result string: 73

Query string: Tell me the measured viability of COc1ccc(-c2cc(=O)c3c(OC)c(OC)c(OC)c(OC)c3o2)cc1OC , please.
Result string: 66.9

Query string: Tell me the measured viability of CN(C)CC/C=C1/c2ccccc2Sc2ccc(Cl)cc21 , please.
Result string: 75.2

Query string: Tell me the measured viability of CC(=O)Nc1ccc(OC(=O)c2ccccc2O)cc1 , please.
Result string: 71.4

----------
- ASSAY INFO: differential killing of epithelial or mesenchymal cells, primary screen, imaging, PC-3E GFP, TEM4-18 mCherry, co-culture (AID 1345086);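 also: cells exposed to compound for 72 h before imaging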
- EXPERIMENTAL PARAMETERS: imaging cell counts, measured here: mesenchymal TEM4-18 mCherry cell survival, at 1 µM
Would you mind telling me the reported normalised cell number of each entry?
Write the number on its own, no unit after it.

Query string: Tell me the measured normalised cell number of Clc1ccccc1CN1CCc2sccc2C1 , please.
Result string: 0.94

Query string: Tell me the measured normalised cell number of CCOc1ccc2nc(S(N)(=O)=O)sc2c1 , please.
Result string: 0.86

Query string: Tell me the measured normalised cell number of CC(=O)N[C@@H]1[C@@H](O)[C@H](O)[C@@H](CO)O[C@H]1O , please.
Result string: 0.98

Query string: Tell me the measured normalised cell number of Cc1cc(=O)oc2cc(O)c(O)cc12 , please.
Result string: 0.91

Query string: Tell me the measured normalised cell number of COC1=CC(=O)C(C(=O)c2ccccc2)=CC1=O , please.
Result string: 1.03

Query string: Tell me the measured normalised cell number of COc1c(OC)c2occc2c2oc(=O)ccc12 , please.
Result string: 1.08

Query string: Tell me the measured normalised cell number of COc1cc(O)cc(OC)c1OC , please.
Result string: 1.04

Query string: Tell me the measured normalised cell number of NCCCCN , please.
Result string: 1.02

Query string: Tell me the measured normalised cell number of CC(=O)Oc1cc(-c2coc3cc(OC(C)=O)c(OC(C)=O)c(OC(C)=O)c3c2=O)cc(OC(C)=O)c1OC(C)=O , please.
Result string: 1.08

Query string: Tell me the measured normalised cell number of NCCC(=O)N[C@@H](Cc1cnc[nH]1)C(=O)O , please.
Result string: 1.03

Query string: Tell me the measured normalised cell number of NC(=O)NS(=O)(=O)c1ccc(N)cc1 , please.
Result string: 1.02

Query string: Tell me the measured normalised cell number of COc1ccc(-c2coc3c(O)c(OC)ccc3c2=O)cc1 , please.
Result string: 1.06

Query string: Tell me the measured normalised cell number of CC12CCCC(O)(C1)C1CC(C)(C)C1CC2 (stereo not given) , please.
Result string: 1.07

Query string: Tell me the measured normalised cell number of Cc1cc(O)cc(=O)o1 , please.
Result string: 1.01

Query string: Tell me the measured normalised cell number of CC1(C)CC23C(=O)CCC(O)C2(C)CCC13 (stereo not given) , please.
Result string: 1.11

Query string: Tell me the measured normalised cell number of CC1CCc2c(N3CCC(O)CC3)c(F)cc3c(=O)c(C(=O)O)cn1c23 (stereo not given) , please.
Result string: 0.87

Query string: Tell me the measured normalised cell number of NC1(C(=O)O)CCCC1 , please.
Result string: 1.06

Query string: Tell me the measured normalised cell number of CCOC(=O)[C@H](CCc1ccccc1)N[C@H](C)C(=O)N1C2CCCCC2C[C@H]1C(=O)O (stereo not given in full) , please.
Result string: 0.93

Query string: Tell me the measured normalised cell number of COc1c(O)cc(O)cc1O , please.
Result string: 0.98

Query string: Tell me the measured normalised cell number of Cc1cc(O)c2c(c1)C(=O)c1cccc(O)c1C2=O , please.
Result string: 1.02

Query string: Tell me the measured normalised cell number of CC1CC[C@@]2(OC1)O[C@H]1CC3C4CC[C@@H]5C[C@@H](O)CC[C@]5(C)C4CC[C@]3(C)[C@H]1[C@@H]2C (stereo not given in full) , please.
Result string: 1.2

Query string: Tell me the measured normalised cell number of O=C(O)c1cccnc1C(=O)O , please.
Result string: 0.99

Query string: Tell me the measured normalised cell number of CCC1NC(=O)c2cc(S(N)(=O)=O)c(Cl)cc2N1 (stereo not given) , please.
Result string: 1.2

Query string: Tell me the measured normalised cell number of CCCc1nc(C(C)(C)O)c(C(=O)OCc2oc(=O)oc2C)n1Cc1ccc(-c2ccccc2-c2nn[nH]n2)cc1 , please.
Result string: 1.08

Query string: Tell me the measured normalised cell number of CCOc1ccc(C(=O)c2ccc(OC)c(O)c2O)cc1 , please.
Result string: 0.81

Query string: Tell me the measured normalised cell number of CNCCCN1c2ccccc2CCc2ccccc21 , please.
Result string: 1.5

Query string: Tell me the measured normalised cell number of COc1cc(C)c2c(c1C=O)Oc1c(c(C)c(O)c3c1C(O)OC3=O)OC2=O (stereo not given) , please.
Result string: 0.7

Query string: Tell me the measured normalised cell number of Cc1ccc(O)cc1 , please.
Result string: 1.37

Query string: Tell me the measured normalised cell number of O=C1c2ccc(O)c(O)c2C(=O)c2c(O)ccc(O)c21 , please.
Result string: 0.92

Query string: Tell me the measured normalised cell number of CCCC(=O)Nc1ccc(OCC(O)CNC(C)C)c(C(C)=O)c1 (stereo not given) , please.
Result string: 0.93

Query string: Tell me the measured normalised cell number of Cn1c(=O)c2c(ncn2CC2OCCO2)n(C)c1=O , please.
Result string: 0.98

Query string: Tell me the measured normalised cell number of C=C1CCC2C(CC2(C)C)C(=O)CCC1O (stereo not given) , please.
Result string: 0.96

Query string: Tell me the measured normalised cell number of C=NC(C(=O)NC1C(=O)N2C1SC(C)(C)C2C(=O)O)c1ccccc1 (stereo not given) , please.
Result string: 0.99

Query string: Tell me the measured normalised cell number of CCC/C=C1\OC(=O)C2=C1CCC=C2 , please.
Result string: 0.94

Query string: Tell me the measured normalised cell number of Cc1cc(O)c(C=O)c2c1C(=O)Oc1c(C)c(O)c3c(c1O2)C(O)OC3=O (stereo not given) , please.
Result string: 0.96

Query string: Tell me the measured normalised cell number of CC(O)Cn1cnc2c1c(=O)n(C)c(=O)n2C (stereo not given) , please.
Result string: 1.04

Query string: Tell me the measured normalised cell number of CC(C)=CCC/C(C)=C/CC/C(C)=C/CO , please.
Result string: 0.91

Query string: Tell me the measured normalised cell number of CC1(C)C=Cc2cc3ccc(=O)oc3cc2O1 , please.
Result string: 1.05

Query string: Tell me the measured normalised cell number of OCCc1ccccc1 , please.
Result string: 1

Query string: Tell me the measured normalised cell number of CCCCCC(=O)Cc1cc(O)cc(O)c1C(=O)Oc1cc(CC(=O)CCCCC)c(C(=O)O)c(OC)c1 , please.
Result string: 1.03

Query string: Tell me the measured normalised cell number of C[N+]1(C)CCCC(OC(=O)C(O)(c2ccccc2)c2ccccc2)C1 (stereo not given) , please.
Result string: 1.37

Query string: Tell me the measured normalised cell number of O=C(CCc1ccc(O)cc1)c1c(O)cc(O)cc1O[C@@H]1O[C@H](CO)[C@@H](O)[C@H](O)[C@H]1O , please.
Result string: 0.89

Query string: Tell me the measured normalised cell number of COc1ccc(-c2coc3cc(O)ccc3c2=O)c(O)c1O , please.
Result string: 0.8

Query string: Tell me the measured normalised cell number of c1ccc2c(Cc3c[nH]c4ccccc34)c[nH]c2c1 , please.
Result string: 1.01

Query string: Tell me the measured normalised cell number of CCCCCc1c2c(cc(O)c1C(=O)O)OC(=O)c1c(cc(OC)cc1C(=O)CCCC)O2 , please.
Result string: 1.05

Query string: Tell me the measured normalised cell number of CCCCCC1C(=O)CCC1CC(=O)O (stereo not given) , please.
Result string: 0.07

Query string: Tell me the measured normalised cell number of NCCCC(O)(P(=O)(O)O)P(=O)(O)O , please.
Result string: 1.08

Query string: Tell me the measured normalised cell number of COc1cc(O)c2c(=O)cc(C)oc2c1CC=C(C)C , please.
Result string: 1.17

Query string: Tell me the measured normalised cell number of CC(C)(C)NCC(O)COc1cccc2c1CCC(=O)N2 (stereo not given) , please.
Result string: 1.36

Query string: Tell me the measured normalised cell number of CC(C(=O)O)c1ccc(-c2ccccc2)c(F)c1 (stereo not given) , please.
Result string: 1.18
